- Organism: Homo sapiens
- procedure text: Ratio of embelin IC50 to compound IC50 for hexa-His-tagged PAI-1 N152H/K156T/Q321L/M356I mutant (unknown origin) expressed in Escherichia coli BL21(DE3)
measured parameter: Ratio IC50

line notation: CCCCCCCCCC1=C(O)C(=O)C(CCCC)=C(O)C1=O
Ratio IC50: 27
--
line notation: CCCCCCCCCC1=C(O)C(=O)C(Cc2ccccc2)=C(O)C1=O
Ratio IC50: 6.5
--
line notation: CCCCCCCCC1=C(O)C(=O)C(CCCCCCCC)=C(O)C1=O
Ratio IC50: 5
--
line notation: CCCCCCC1=C(O)C(=O)C(CCCCCC)=C(O)C1=O
Ratio IC50: 9
--
line notation: CCCCCCCCCC1=C(O)C(=O)C(CCC)=C(O)C1=O
Ratio IC50: 13
--
line notation: CCCCCC1=C(O)C(=O)C(CCCCC)=C(O)C1=O
Ratio IC50: 5
--
line notation: CCCCCCCCCC1=C(O)C(=O)C(CCCCC)=C(O)C1=O
Ratio IC50: 8
--
line notation: CCCCCCCC1=C(O)C(=O)C(CCCCCCC)=C(O)C1=O
Ratio IC50: 10
--
line notation: CCCCCCCCCC1=C(O)C(=O)C(CCCCCCC)=C(O)C1=O
Ratio IC50: 5

Prompt: Look up and state reported Ratio IC50 for C=CCC1=C(O)C(=O)C(CCCCCCCCC)=C(O)C1=O
Completion: 6.5

These measurements were taken from ChEMBL document CHEMBL3259521.
